compounds and their reported normalised response
System: HCC1143
ASSAY PROTOCOL: normalised response (% of control), CellTox Green; higher = less cell death (100 = DMSO, 0 = benzethonium chloride kill control)
MEASUREMENT CONTEXT: incubation time: 72 h
EXPERIMENTAL ENDPOINT: normalised response

COMPOUND	READING
CC(=O)O[C@]1(C(C)=O)CC[C@H]2[C@@H]3C=C(C)C4=CC(=O)CC[C@]4(C)[C@H]3CC[C@@]21C [Megestrol acetate] (10000 nM)	112%
Nc1ccn([C@@H]2O[C@H](CO)[C@@H](O)[C@@H]2O)c(=O)n1 [Cytarabine] (1000 nM)	112%
Nc1ccn([C@@H]2O[C@H](CO)[C@@H](O)[C@@H]2O)c(=O)n1 [Cytarabine] (100 nM)	99.4%
COc1cccc2cc(-c3nc([C@H]4CC[C@H](C(=O)O)CC4)n4ncnc(N)c34)[nH]c12 [OSI-027] (10000 nM)	115%
CS(=O)(=O)c1ccc(C(=O)Nc2ccc(Cl)c(-c3ccccn3)c2)c(Cl)c1 [Vismodegib] (10000 nM)	76.7%
C=CCNC1=C2C[C@@H](C)C[C@H](OC)[C@H](O)[C@@H](C)/C=C(\C)[C@H](OC(N)=O)[C@@H](OC)/C=C\C=C(/C)C(=O)NC(=CC1=O)C2=O [Tanespimycin] (1000 nM)	91.2%
C[C@]1(c2nc3c(C(N)=O)cccc3[nH]2)CCCN1 [Veliparib] (10000 nM)	110%

====

Overview of reported normalised response across a group of compounds:
Tested on: Hs578T
ASSAY PROTOCOL: normalised response (% of control), CellTox Green; higher = less cell death (100 = DMSO, 0 = benzethonium chloride kill control)
MEASUREMENT CONTEXT: incubation time: 72 h
EXPERIMENTAL ENDPOINT: normalised response (%)

COMPOUND	DISPLAY UNIT	READING
CCN1CCN(c2ccc(Nc3cc(N(C)C(=O)Nc4c(Cl)c(OC)cc(OC)c4Cl)ncn3)cc2)CC1 [NVP-BGJ398] (10 nM)	%	92
COc1cccc2cc(-c3nc([C@H]4CC[C@H](C(=O)O)CC4)n4ncnc(N)c34)[nH]c12 [OSI-027] (1000 nM)	%	106
C=CC[C@@H]1/C=C(\C)C[C@H](C)C[C@H](OC)[C@H]2O[C@@](O)(C(=O)C(=O)N3CCCC[C@H]3C(=O)O[C@H](/C(C)=C/[C@@H]3CC[C@@H](O)[C@H](OC)C3)[C@H](C)[C@@H](O)CC1=O)[C@H](C)C[C@@H]2OC [Tacrolimus] (10000 nM)	%	112
Nc1ccn([C@@H]2O[C@H](CO)[C@@H](O)[C@@H]2O)c(=O)n1 [Cytarabine] (100 nM)	%	106
CN(C)C/C=C/C(=O)Nc1cc2c(Nc3ccc(F)c(Cl)c3)ncnc2cc1O[C@H]1CCOC1 [Afatinib] (100 nM)	%	100
COc1cc(Nc2ncc3c(n2)-c2ccc(Cl)cc2C(c2c(F)cccc2OC)=NC3)ccc1C(=O)O [Alisertib] (10000 nM)	%	114
O=C(c1ccc(C(=O)N2CCC(N3CCCC3)CC2)c(Nc2ccccc2)c1)N1CCC(N2CCCC2)CC1 [UNC1215] (30000 nM)	%	84.2
COc1cc(Nc2ncc3c(n2)-c2ccc(Cl)cc2C(c2c(F)cccc2OC)=NC3)ccc1C(=O)O [Alisertib] (100 nM)	%	-59.3
CS(=O)(=O)c1ccc(C(=O)Nc2ccc(Cl)c(-c3ccccn3)c2)c(Cl)c1 [Vismodegib] (100 nM)	%	80

====

Tested on: HCC1143
ASSAY PROTOCOL: normalised response (% of control), CellTox Green; higher = less cell death (100 = DMSO, 0 = benzethonium chloride kill control)
MEASUREMENT CONTEXT: incubation time: 72 h
Each entry below lists one item and its recorded normalised response value.

COMPOUND	DISPLAY UNIT	normalised response
CCN1CCN(c2ccc(Nc3cc(N(C)C(=O)Nc4c(Cl)c(OC)cc(OC)c4Cl)ncn3)cc2)CC1 [NVP-BGJ398] (10 nM)	%	81.9
S=c1[nH]cnc2nc[nH]c12 [Mercaptopurine] (10000 nM)	%	108
CC(=O)O[C@]1(C(C)=O)CC[C@H]2[C@@H]3C=C(C)C4=CC(=O)CC[C@]4(C)[C@H]3CC[C@@]21C [Megestrol acetate] (100 nM)	%	74
Nc1nc(Cl)nc2c1ncn2[C@H]1C[C@H](O)[C@@H](CO)O1 [Cladribine] (100 nM)	%	119

====

Test system: CAL-51
ASSAY PROTOCOL: normalised viability (% of control), CellTiter-Blue; higher = more viable cells (about 100 = DMSO control)
MEASUREMENT CONTEXT: incubation time: 72 h

MOLECULE	DISPLAY UNIT	normalised viability
N#CC[C@H](C1CCCC1)n1cc(-c2ncnc3[nH]ccc23)cn1 [Ruxolitinib] (10000 nM)	%	87.3
CN(C)C/C=C/C(=O)Nc1cc2c(Nc3ccc(F)c(Cl)c3)ncnc2cc1O[C@H]1CCOC1 [Afatinib] (10000 nM)	%	50.6
CC[C@]1(O)C[C@@H]2CN(CCc3c([nH]c4ccccc34)[C@@](C(=O)OC)(c3cc4c(cc3OC)N(C)[C@H]3[C@@](O)(C(=O)OC)[C@H](OC(C)=O)[C@]5(CC)C=CCN6CC[C@]43[C@@H]65)C2)C1 [Vinblastine] (1000 nM)	%	11.4
COc1cccc2c1C(=O)c1c(O)c3c(c(O)c1C2=O)C[C@@](O)(C(=O)CO)C[C@@H]3O[C@H]1C[C@H](N)[C@H](O)[C@H](C)O1 [Doxorubicin] (1000 nM)	%	3.87

====

System: MDA-MB-436
ASSAY PROTOCOL: normalised viability (% of control), CellTiter-Blue; higher = more viable cells (about 100 = DMSO control)
MEASUREMENT CONTEXT: 100 nM; incubation time: 72 h
Below: a set of entries, each annotated with reported normalised viability.
EXPERIMENTAL ENDPOINT: normalised viability

LINE NOTATION	READING
CS(=O)(=O)c1ccc(C(=O)Nc2ccc(Cl)c(-c3ccccn3)c2)c(Cl)c1	85.6%
C[C@]1(c2nc3c(C(N)=O)cccc3[nH]2)CCCN1	84.1%
Nc1ccn([C@@H]2O[C@H](CO)[C@@H](O)[C@@H]2O)c(=O)n1	91.9%
COc1cccc2cc(-c3nc([C@H]4CC[C@H](C(=O)O)CC4)n4ncnc(N)c34)[nH]c12	74.1%

====

System: Hs578T
ASSAY PROTOCOL: drug sensitivity score (DSS), CellTiter-Blue viability (DSS (AUC-based score)); higher = stronger viability inhibition; extreme values may be limits of the assay
MEASUREMENT CONTEXT: incubation time: 72 h
Quick list: drug sensitivity score per entry.
EXPERIMENTAL ENDPOINT: drug sensitivity score

LINE NOTATION	READING
CS(=O)(=O)c1ccc(C(=O)Nc2ccc(Cl)c(-c3ccccn3)c2)c(Cl)c1	0
Cc1ccc(F)c(NC(=O)Nc2ccc(-c3cccc4[nH]nc(N)c34)cc2)c1	0
Cc1c2oc3c(C)ccc(C(=O)N[C@@H]4C(=O)N[C@H](C(C)C)C(=O)N5CCC[C@H]5C(=O)N(C)CC(=O)N(C)[C@@H](C(C)C)C(=O)O[C@@H]4C)c3nc-2c(C(=O)N[C@@H]2C(=O)N[C@H](C(C)C)C(=O)N3CCC[C@H]3C(=O)N(C)CC(=O)N(C)[C@@H](C(C)C)C(=O)O[C@@H]2C)c(N)c1=O	33.6
CN1CC[C@H](c2c(O)cc(O)c3c(=O)cc(-c4ccccc4Cl)oc23)[C@H](O)C1	22.8
COc1cccc2cc(-c3nc([C@H]4CC[C@H](C(=O)O)CC4)n4ncnc(N)c34)[nH]c12	9.33
S=c1[nH]cnc2nc[nH]c12	0
OC[C@H]1O[C@@H](n2cnc3c2N=CNC[C@H]3O)C[C@@H]1O	0

====

This listing pairs compounds with measured normalised response.
Test system: MFM-223
ASSAY PROTOCOL: normalised response (% of control), CellTiter-Glo; higher = more viable cells (100 = DMSO, 0 = benzethonium chloride kill control)
MEASUREMENT CONTEXT: incubation time: 72 h
EXPERIMENTAL ENDPOINT: normalised response (%)

COMPOUND	READING
COc1cccc2cc(-c3nc([C@H]4CC[C@H](C(=O)O)CC4)n4ncnc(N)c34)[nH]c12 [OSI-027] (100 nM)	91.3
S=c1[nH]cnc2nc[nH]c12 [Mercaptopurine] (100 nM)	98.5
Nc1nc(Cl)nc2c1ncn2[C@H]1C[C@H](O)[C@@H](CO)O1 [Cladribine] (10 nM)	104
C=CCNC1=C2C[C@@H](C)C[C@H](OC)[C@H](O)[C@@H](C)/C=C(\C)[C@H](OC(N)=O)[C@@H](OC)/C=C\C=C(/C)C(=O)NC(=CC1=O)C2=O [Tanespimycin] (100 nM)	53.7
COc1cccc2c1C(=O)c1c(O)c3c(c(O)c1C2=O)C[C@@](O)(C(=O)CO)C[C@@H]3O[C@H]1C[C@H](N)[C@H](O)[C@H](C)O1 [Doxorubicin] (10 nM)	108
